- target_desc: GABA-A receptor; anion channel (Rattus norvegicus) (UniProt O09028+P15431+P18506+P18508+P19969+P20236+P23574+P23576+P28471+P28473+P30191+P62813+P63079+P63138+Q91ZM7+Q9ES14)
- procedure_text: Binding constant was determined by displacing potential to [3H]-diazepam binding in cerebral cortex homogenates of rat
- Assay type: tissue-based
Class (by K2) -- A: < 0.04 µM; B: ≥ 0.04 µM and < 0.6 µM; C: ≥ 0.6 µM

# compound, qualitative_label
records = [
    ("O=C1CN=C(c2ccccc2F)c2cc(Cl)ccc2N1C1CCN(Cc2ccccc2)C1 (configuration not stated)", "B"),
    ("CN1CCC(N2C(=O)CN=C(c3ccccc3F)c3ccc(Cl)cc32)CC1", "C"),
    ("COc1ccc2c(c1)C(c1ccccc1F)=NCC(=O)N2C1CCN(C)CC1", "C"),
    ("CN1CCC(N2C(=O)CN=C(c3ccccc3Cl)c3cc(F)ccc32)CC1", "A"),
    ("O=C1CN=C(c2ccccc2)c2cc(F)ccc2N1C1CCNCC1", "C"),
    ("CN1CCC(N2C(=O)CN=C(c3ccccc3F)c3cc(Br)ccc32)CC1", "B"),
    ("CN1CCC(N2C(=O)CN=C(c3ccccc3)c3cc(Br)ccc32)CC1", "B"),
    ("CN1CCC(N2C(=O)CN=C(c3ccccc3)c3cc(F)ccc32)CC1", "C"),
    ("CN1CCC(N2C(=O)CN=C(c3ccccc3Cl)c3cc(Cl)ccc32)C1 (configuration not stated)", "B"),
    ("CN1CCC(N2C(=O)C(O)N=C(c3ccccc3F)c3cc(Cl)ccc32)CC1 (configuration not stated)", "B"),
    ("O=C1CN=C(c2ccccc2Cl)c2cc(Cl)ccc2N1C1CCNCC1", "A"),
    ("CCOC(=O)N1CCC(N2C(=O)CN=C(c3ccccc3F)c3cc(Cl)ccc32)CC1", "A"),
    ("CN1CCC(N2C(=O)CN=C(c3cccc(Cl)c3)c3cc(Cl)ccc32)CC1", "C"),
    ("O=C1CN=C(c2ccccc2Cl)c2cc(Cl)ccc2N1C1CCCNC1 (configuration not stated)", "A"),
    ("CCOC(=O)N1CCC(N2C(=O)CN=C(c3ccccc3Cl)c3cc(Cl)ccc32)CC1", "A"),
    ("O=C1CN=C(c2ccccc2)c2cc(Br)ccc2N1C1CCNCC1", "B"),
    ("O=C1CN=C(c2ccccc2Cl)c2cc(F)ccc2N1C1CCNCC1", "A"),
    ("CN1CCCC(N2C(=O)CN=C(c3ccccc3Cl)c3cc(Cl)ccc32)C1 (configuration not stated)", "A"),
    ("O=C1CN=C(c2ccccc2F)c2cc(Cl)ccc2N1C1CCNCC1", "A"),
    ("O=C1CN=C(c2ccccc2Cl)c2cc(Cl)ccc2N1C1CCNC1 (configuration not stated)", "A"),
    ("O=C1CN=C(c2ccccc2)c2ccccc2N1C1CCNCC1", "C"),
    ("CN1CCC(N2C(=O)CN=C(c3ccccc3F)c3cc(Cl)c(Cl)cc32)CC1", "C"),
]
